Listed below: Reduction in Signal from Heparin at 300 sec values for each entry.
- system_name: recombinant human GREM1 (hGREM1-His; C-terminal 10His tagged, R&D, #5190-GR) (human) (UniProt O60565)
- Sequence (O60565 other isoform, or with tags, fused parts or gaps limits assumed, form in doubt): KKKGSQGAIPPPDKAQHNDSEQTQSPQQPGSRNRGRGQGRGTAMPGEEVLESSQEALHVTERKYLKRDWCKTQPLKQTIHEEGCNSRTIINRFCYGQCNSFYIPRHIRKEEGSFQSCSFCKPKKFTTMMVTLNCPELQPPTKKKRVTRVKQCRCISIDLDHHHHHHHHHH
- experiment_description: BLI Octet, captured mAb, 100 nM GREM1 without vs with 5 uM heparin
measured_endpoint: Reduction in Signal from Heparin at 300 sec

INSERT INTO measurements (binder, reading) VALUES
  ('H4H6260P (antibody, human IgG4, V domains shown) VH: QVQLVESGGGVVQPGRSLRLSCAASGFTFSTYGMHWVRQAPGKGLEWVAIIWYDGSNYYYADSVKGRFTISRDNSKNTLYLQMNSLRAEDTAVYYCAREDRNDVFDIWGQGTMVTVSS VL: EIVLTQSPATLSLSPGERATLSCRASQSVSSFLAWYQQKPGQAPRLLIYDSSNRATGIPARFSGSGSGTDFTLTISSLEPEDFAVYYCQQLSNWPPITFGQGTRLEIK', '0.05 nm'),
  ('H4H6251P (antibody, human IgG4, V domains shown) VH: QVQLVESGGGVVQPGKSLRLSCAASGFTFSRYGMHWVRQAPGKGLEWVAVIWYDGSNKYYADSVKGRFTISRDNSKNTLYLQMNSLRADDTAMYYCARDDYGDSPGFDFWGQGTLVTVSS VL: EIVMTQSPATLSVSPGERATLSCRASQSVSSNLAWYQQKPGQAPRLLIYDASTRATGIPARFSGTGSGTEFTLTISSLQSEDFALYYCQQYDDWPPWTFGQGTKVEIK', '0.09 nm');
